- System: Fibroblast
- Assay summary: Multiplex assay against human fibroblast
- Assay type: toxicity, cell-based
- Assay conditions: 12 h, 10 µM, compound concentration 10 uM, replicate 1
Outcome measure: Population Normal (%)
# number only, unit % dropped from output

Some compounds with recorded Population Normal (%):
• c1ccc2oc(-c3csc(C4CCN(Cc5nc6ncccc6[nH]5)CC4)n3)cc2c1 = 88
• CN(C)C/C=C/C(=O)Nc1cc2c(Nc3ccc(F)c(Cl)c3)ncnc2cc1O[C@H]1CCOC1.O=C(O)/C=C\C(=O)O.O=C(O)/C=C\C(=O)O [AFATINIB DIMALEATE] = 75
• CCCn1c(=O)c2[nH]c(C34CC5CC(CC3C5)C4)nc2n(CCC)c1=O = 86
• COc1cc2c(NC3CCN(C(C)C)CC3)nc(N3CCC(F)(F)CC3)nc2cc1OCCCN1CCCC1 = 66
• CCN1CCN(Cc2ccc(NC(=O)c3ccc(C)c(Oc4ccnc5[nH]ccc45)c3)cc2C(F)(F)F)CC1.Cl.Cl.Cl.O = 79
• COc1cc2c(Nc3ccc(NC(=O)c4ccccc4)cc3)ncnc2cc1OCCCN1CCOCC1 = 80
• N#Cc1cnc(Nc2cc(NC[C@H]3CNCCO3)c(C(F)(F)F)cn2)cn1 = 87
• CNC(=O)c1cc(Oc2ccc(NC(=O)Nc3cc(C(C)(C)C)nn3-c3ccc4ncccc4c3)c(F)c2)ccn1 = 91
• Nc1nc2c(c(N3CCNCC3)n1)CCC1=C2[C@@H]2CCCC[C@@H]2O1 = 57
• CNc1oc(-c2cccc3ccccc23)nc1C#N = 35

Then there is this compound:
Fill blank: measured Population Normal (%) of the compound O=C(O)c1ccc2cc(-c3ccc(O)c(C45CC6CC(CC(C6)C4)C5)c3)ccc2c1 is ____.
83

====

- Tested on: HEK-293T
- Assay summary: Incucyte cell viability with HEK293T; note: filed as whole numbers so only -1 and 0 and 1 occur
- Format: toxicity, cell-based
- Assay conditions: human, 18 h, 10 µM, compound concentration 10 uM, replicate number 1, timepoint 18 hours
We begin with a simple list: items and their reported Growth Rate.
Please give only the number in your answer, with no unit.

• O=C(Nc1cccc2c(=O)cc(-c3nnn[nH]3)oc12)c1ccc(OCCCCc2ccccc2)cc1 = 0
• CC(C)Oc1ccc(C(=O)N[C@H](CNC(=O)CN(C)C)Cc2ccc(-c3cn4cccc([C@H](C)O)c4n3)cc2)cc1Cl [GSK-923295A] = 0

Which Growth Rate value belongs to CN(C(=O)Cc1ccc(Cl)c(Cl)c1)C(CN1CCCC1)c1cccc(OCC(=O)O)c1.Cl (centres undefined) ?
1

Try the compound FC(F)c1nc2ccccc2n1-c1nc(N2CCOCC2)nc(N2CCOCC2)n1 [ZSTK-474]
0

Please give the result for Cc1nc2sccn2c(=O)c1CCN1CCC(=C(c2ccc(F)cc2)c2ccc(F)cc2)CC1 [RITANSERIN] too.
0

Next compound: COc1ccc(NS(=O)(=O)c2sc3ccc(Cl)cc3c2C)cc1N1CCNCC1.Cl
0

What do you have for CCN1CCN(Cc2ccc(NC(=O)c3ccc(C)c(Oc4ccnc5[nH]ccc45)c3)cc2C(F)(F)F)CC1.Cl.Cl.Cl.O ?
0

Let us now turn to CNc1oc(-c2cccc3ccccc23)nc1C#N
1

Next: O=C(O)c1ccc2cc(-c3ccc(O)c(C45CC6CC(CC(C6)C4)C5)c3)ccc2c1 [O-DEMETHYLATED ADAPALENE]
0

Also need CO[C@@H]1COCC[C@@H]1N[C@@H]1CC[C@@](C(=O)N2CCc3ncc(C(F)(F)F)cc3C2)(C(C)C)C1 [MK-0812] , thanks.
1

How about C[C@H]1CCCN1Cc1nc2cc(NC(=O)c3ccc4cnccc4c3)ccc2[nH]1 ?
1

Also FC(F)(F)c1c(N2CCC(c3ccccc3)CC2)ccn2c(CC3CC3)nnc12 , if possible.
0

Could you do the same for CCCCN(CCCC)C(=O)CN1C[C@@H](c2ccc3c(c2)OCO3)[C@H](C(=O)O)[C@H]1c1ccc(OC)cc1 , please?
1

Record: CN(C)C(=O)Cn1cc(-c2nc(C3(c4ccc(-c5cnc(N)nc5)cc4)CC3)no2)cn1 [BI 0153]
0

Would you kindly repeat that for COc1cc(N2CCC(N(C)C)CC2)ccc1Nc1ncc(Cl)c(Nc2ccccc2P(C)(C)=O)n1 ?
0

Proceed to CCC1(C2=NCCN2)Cc2ccccc2O1 (centres undefined) [EFAROXAN]
1

Please answer likewise for Cl.Cl.Nc1ncnc2c1c(-c1cccc(OCc3ccccc3)c1)cn2[C@H]1C[C@@H](CN2CCC2)C1
0

Try this compound next: C[C@@H](NCCc1ccc(O)cc1)[C@@H](O)c1ccc(O)cc1.Cl (relative stereo)
0

Same question, CN(C)C/C=C/C(=O)Nc1cc2c(Nc3ccc(F)c(Cl)c3)ncnc2cc1O[C@H]1CCOC1.O=C(O)/C=C\C(=O)O.O=C(O)/C=C\C(=O)O [AFATINIB DIMALEATE] this time
0

Also check Clc1cc2c(NC3CCCC3)nnc(-c3ccncc3)c2cc1Cl
1

====

- System: HEK-293T
- Assay summary: Multiplex assay against HEK293T
- Type: toxicity, cell-based
- Assay conditions: human, 48 h, 10 µM, compound concentration 10 uM, replicate 1
# strict inequality: Population Normal (%) < 70% yields 1 (yes), everything else yields 0 (no)

Reference set, count: 5
* CCCn1c(=O)c2[nH]c(C34CC5CC(CC3C5)C4)nc2n(CCC)c1=O | 0 (no)
* Nc1nc2c(c(N3CCNCC3)n1)CCC1=C2[C@@H]2CCCC[C@@H]2O1 | 1 (yes)
* COc1ccc(NS(=O)(=O)c2sc3ccc(Cl)cc3c2C)cc1N1CCNCC1.Cl | 0 (no)
* Cl.Cl.Nc1ncnc2c1c(-c1cccc(OCc3ccccc3)c1)cn2[C@H]1C[C@@H](CN2CCC2)C1 | 0 (no)
* Cc1nc(Cc2cccc(C(F)(F)F)c2)sc1-c1ccc(C(N)=O)nc1 [TP-024n] | 0 (no)

Take the compound CC(C)N1CCC(C)(C)c2cc(C#Cc3ccc(C(=O)O)cc3)ccc21 and say whether its Population Normal (%) is less than 70%.
1 (yes)

Can you check Cc1cc2c(cc1N1C(=O)c3cccc4c(CCCO)ccc(c34)C1=O)n(C)c(=O)n2C next?
0 (no)

====

- System: U2OS
- Assay summary: Multiplex assay against U2OS
- Format: toxicity, cell-based
- Assay conditions: human, 12 h, 10 µM, compound concentration 10 uM, replicate 2
The following compounds are listed with their measured Population Membrane Permeable-Phenotype (%) values.
Provide the reading as a plain figure in %.

Reference set, count: 7
• CCOc1cc2ncc(C#N)c(Nc3ccc(OCc4cccc(F)c4)c(Cl)c3)c2cc1NC(=O)/C=C/CN(C)C = 31
• CCOc1cc(N2CCC(O)CC2)ccc1Nc1ncc2c(n1)N(C1CCCC1)CCC(=O)N2C = 7
• COc1cc2c(NC3CCN(C(C)C)CC3)nc(N3CCC(F)(F)CC3)nc2cc1OCCCN1CCCC1 = 66
• COc1cc2c(Nc3ccc(NC(=O)c4ccccc4)cc3)ncnc2cc1OCCCN1CCOCC1 = 13
• Cc1cn(-c2cc(NC(=O)c3ccc4c(c3)CN(c3cncnc3)C[C@@H]4C)cc(C(F)(F)F)c2)cn1 = 24
• Cc1nc(Cc2cccc(C(F)(F)F)c2)sc1-c1ccc(C(N)=O)nc1 [TP-024n] = 9
• CNC(=O)c1cc(Oc2ccc(NC(=O)Nc3cc(C(C)(C)C)nn3-c3ccc4ncccc4c3)c(F)c2)ccn1 = 18

Which measured Population Membrane Permeable-Phenotype (%) belongs to CN(C)C/C=C/C(=O)Nc1cc2c(Nc3ccc(F)c(Cl)c3)ncnc2cc1O[C@H]1CCOC1.O=C(O)/C=C\C(=O)O.O=C(O)/C=C\C(=O)O [AFATINIB DIMALEATE] , tested on U2OS?
18

====

- System: Fibroblast
- Assay summary: Multiplex assay against human fibroblast
- Type: toxicity, cell-based
- Assay conditions: 12 h, 1 µM, compound concentration 1 uM, replicate 1
Outcome measure: Population Membrane Permeable-Phenotype (%)
Number only, in %; omit the unit.

* CC(=O)c1cc(-c2cc(C(=O)NC3CC3)ccc2C)c2ncccn12 | 42
* CNC(=O)c1nn(C)c2c1C(C)(C)Cc1cnc(Nc3ccc(N4CCN(C)CC4)cc3)nc1-2 | 15
* CCCn1c(=O)c2[nH]c(C34CC5CC(CC3C5)C4)nc2n(CCC)c1=O | 24
* N#Cc1cnc(Nc2cc(NC[C@H]3CNCCO3)c(C(F)(F)F)cn2)cn1 | 9
* Cc1cc2c(cc1N1C(=O)c3cccc4c(CCCO)ccc(c34)C1=O)n(C)c(=O)n2C | 30
* CNC(=O)c1cc(Oc2ccc(NC(=O)Nc3cc(C(C)(C)C)nn3-c3ccc4ncccc4c3)c(F)c2)ccn1 | 4

Query: Population Membrane Permeable-Phenotype (%); subject: CCOc1cc2ncc(C#N)c(Nc3ccc(OCc4cccc(F)c4)c(Cl)c3)c2cc1NC(=O)/C=C/CN(C)C
7

Request: CC(C)Oc1ccc(C(=O)N[C@H](CNC(=O)CN(C)C)Cc2ccc(-c3cn4cccc([C@H](C)O)c4n3)cc2)cc1Cl [GSK-923295A]
9

Lookup Cc1cn(-c2cc(NC(=O)c3ccc4c(c3)CN(c3cncnc3)C[C@@H]4C)cc(C(F)(F)F)c2)cn1
7

One more molecule: COc1cc(N2CCC(N(C)C)CC2)ccc1Nc1ncc(Cl)c(Nc2ccccc2P(C)(C)=O)n1
8

Input CCc1cc2c(cc1CC)CC(NC[C@H](O)c1ccc(O)c3[nH]c(=O)ccc13)C2
21

Repeat with CCOc1cc(N2CCC(O)CC2)ccc1Nc1ncc2c(n1)N(C1CCCC1)CCC(=O)N2C
8

Thanks! And O=C(O)c1ccc2cc(-c3ccc(O)c(C45CC6CC(CC(C6)C4)C5)c3)ccc2c1 ?
31

Another: c1ccc2oc(-c3csc(C4CCN(Cc5nc6ncccc6[nH]5)CC4)n3)cc2c1
9
